Below is a list of entries, each paired with its recorded pIC50 value.
System Name: PI3K γ (Homo sapiens)
Sequence (P48736 whole entry): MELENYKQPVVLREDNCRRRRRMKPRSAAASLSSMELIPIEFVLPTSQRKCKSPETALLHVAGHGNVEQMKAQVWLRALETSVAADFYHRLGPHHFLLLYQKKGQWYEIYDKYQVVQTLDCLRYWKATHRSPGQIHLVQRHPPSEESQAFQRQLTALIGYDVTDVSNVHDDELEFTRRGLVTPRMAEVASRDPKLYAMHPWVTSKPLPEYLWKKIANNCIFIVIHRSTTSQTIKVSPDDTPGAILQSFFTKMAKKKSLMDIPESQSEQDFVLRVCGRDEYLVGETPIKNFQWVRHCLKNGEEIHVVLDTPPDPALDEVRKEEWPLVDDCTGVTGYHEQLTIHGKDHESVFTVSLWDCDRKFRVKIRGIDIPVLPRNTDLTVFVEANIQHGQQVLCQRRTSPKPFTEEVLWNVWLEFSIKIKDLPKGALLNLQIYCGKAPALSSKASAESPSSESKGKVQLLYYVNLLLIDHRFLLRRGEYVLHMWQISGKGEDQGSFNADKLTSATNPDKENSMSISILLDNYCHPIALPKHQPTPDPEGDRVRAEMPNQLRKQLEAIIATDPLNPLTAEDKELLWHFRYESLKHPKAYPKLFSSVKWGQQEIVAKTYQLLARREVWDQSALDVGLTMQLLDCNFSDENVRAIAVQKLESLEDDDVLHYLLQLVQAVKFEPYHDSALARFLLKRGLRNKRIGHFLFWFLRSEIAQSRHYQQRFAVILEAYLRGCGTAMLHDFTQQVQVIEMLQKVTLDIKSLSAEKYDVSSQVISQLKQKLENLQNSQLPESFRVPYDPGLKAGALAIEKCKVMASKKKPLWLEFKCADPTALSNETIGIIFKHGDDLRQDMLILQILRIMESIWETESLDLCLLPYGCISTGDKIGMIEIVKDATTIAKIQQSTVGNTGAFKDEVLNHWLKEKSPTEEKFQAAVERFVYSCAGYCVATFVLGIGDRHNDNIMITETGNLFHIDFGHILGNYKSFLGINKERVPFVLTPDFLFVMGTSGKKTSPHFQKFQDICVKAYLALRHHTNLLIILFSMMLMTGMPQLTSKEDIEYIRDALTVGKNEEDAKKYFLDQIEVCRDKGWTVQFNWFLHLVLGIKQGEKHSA
pIC50: −log10 of the molar value.

| Item Smiles | pIC50 |
| --- | --- |
| Cc1csc2nc(Cn3nc(-c4cc(O)cc(F)c4)c4c(N)ncnc43)n(-c3ccccc3F)c(=O)c12 | > 7.00 |
| COc1ccccc1-n1c(Cn2nc(-c3cccc(O)c3)c3c(N)ncnc32)nc2scc(C)c2c1=O | > 6.00 |
| Cc1csc2nc(Cn3nc(-c4cccc(O)c4)c4c(N)ncnc43)n(-c3ccccc3C(F)(F)F)c(=O)c12 | > 7.00 |
| Cc1ccccc1-n1c(Cn2nc(C)c3c(N)ncnc32)nc2scc(C)c2c1=O | > 7.00 |
| Cc1ccnc2cc(Cn3nc(-c4cc(O)cc(F)c4)c4c(N)ncnc43)n(-c3ccccc3F)c(=O)c12 | > 6.00 |
| Cc1csc2nc(Cn3nc(-c4ccc(O)cc4)c4c(N)ncnc43)n(-c3ccccc3F)c(=O)c12 | > 5.00 |
| Cc1cccnc1-n1c(Cn2nc(Cl)c3c(N)ncnc32)nc2scc(C)c2c1=O | > 5.00 |
| Cc1csc2nc(Cn3nc(I)c4c(N)ncnc43)n(-c3ccccc3C(C)C)c(=O)c12 | > 7.00 |

These data points were gathered from patent US9822131B2.
